Just for reference, patent US20250205158A1 is where these values come from.

- PROTOCOL NOTES: LNP characterization (diameter, PDI, % EE)
- Assay type: physicochemical
- SETUP CONDITIONS: LNP formulated with the named lipid; dynamic light scattering
Here the recorded Diameter (nm) is given for each entry.
Write the number in nm without appending the unit.

Quick note, Diameter (nm) for CCCCCC/C=C\CCCCCCCC(=O)OCC(O)CN1CCCN(CC(O)COC(=O)CCCCCCC/C=C\CCCCCC)CCN(CC(O)COC(=O)CCCCCCC/C=C\CCCCCC)CCCN(CC(O)COC(=O)CCCCCCC/C=C\CCCCCC)CC1 (stereo not shown) [AMG1043] landed at 79.27

The measured Diameter (nm) associated with CCCCCC/C=C\CCCC(=O)OCC(O)CN1CCN(CC(O)COC(=O)CCC/C=C\CCCCCC)CCN(CC(O)COC(=O)CCC/C=C\CCCCCC)CCN(CC(O)COC(=O)CCC/C=C\CCCCCC)CCN(CC(O)COC(=O)CCC/C=C\CCCCCC)CCN(CC(O)COC(=O)CCC/C=C\CCCCCC)CC1 (stereo not shown) [AMG1541] reads 85

For reference, reported Diameter (nm) for CCCC/C=C\C/C=C\CCC(=O)OCC(O)CN1CCN(CC(O)COC(=O)CC/C=C\C/C=C\CCCC)CCN(CC(O)COC(=O)CC/C=C\C/C=C\CCCC)CCN(CC(O)COC(=O)CC/C=C\C/C=C\CCCC)CCN(CC(O)COC(=O)CC/C=C\C/C=C\CCCC)CCN(CC(O)COC(=O)CC/C=C\C/C=C\CCCC)CC1 (stereo not shown) [AMG1553] stands at 94

Per the records, this molecule ( CCCCC/C=C\CCCCC(=O)OCC(O)CN1CCN(CC(O)COC(=O)CCCC/C=C\CCCCC)CCN(CC(O)COC(=O)CCCC/C=C\CCCCC)CCN(CC(O)COC(=O)CCCC/C=C\CCCCC)CCN(CC(O)COC(=O)CCCC/C=C\CCCCC)CCN(CC(O)COC(=O)CCCC/C=C\CCCCC)CC1 (stereo not shown) [AMG1547] ) has Diameter (nm) equal to 100
